- Target or test system: purified 6× His-tagged SARS-CoV-2 spike protein (ELISA coat, Example 12) (SARS-CoV-2, UniProt P0DTC2 14-1213)
Readout type: EC50

Field: example entries. Status: answers known.
1. ab44 (scFv, V domains shown) VH: EVQLVESGAEVKKPGESLKISCKGSGYTFTRYWIGWVRQMPGKGLEWMGIIYPGDLDVRYSPSFQGHVTISADKSISTAYLQWNSLKASDTAMYYCARLPQYCREGKCHRWFDPWGQGTLVTVSS VL: EIVLTQSPSSVSASVGDRVTITCRASQGIRNWLAWYQQKPGKAPKLLIYAASSLQSGVPSRFSGSGSGTDFTLTISSLQPEDFATYYCQQGDQDPLTFGQGTNLEIK	28.2 nM
2. ab46 (scFv, V domains shown) VH: EVQLVESGAEVKKPGESLKISCKGSGYTFTRYWIGWVRQMPGKGLEWMGIIYPGDSDTRYSPSFQGHVTISADKSISTAYLQWNSLKASDTAMYYCARLPQYCSSGVCHRWFDPWGQGTLVTVSS VL: EIVLTQSPSSVSASVGDRVTITCRASQGISSWLAWYQQKPGKAPKLLIYAASSLQSGVPSRFSGSGSGTDFTLTISSLQPEDFATYYCQQGHSFPYTFGQGTNLEIK	106 nM

Consider the additional binder presented here.
Entry ab19 (scFv, V domains shown) VH: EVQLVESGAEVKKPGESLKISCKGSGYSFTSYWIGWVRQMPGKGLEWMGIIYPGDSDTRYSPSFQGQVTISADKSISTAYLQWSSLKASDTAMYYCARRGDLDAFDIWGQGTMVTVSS VL: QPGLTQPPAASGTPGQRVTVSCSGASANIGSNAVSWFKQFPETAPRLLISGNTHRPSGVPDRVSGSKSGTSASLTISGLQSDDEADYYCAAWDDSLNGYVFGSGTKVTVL has what EC50?
24.2 nM

These entries and their values trace back to patent US20230303654A1.
